Reference for the values: patent US6548307B2

Measured chromatographic logP of individual entries
# test: physchem

The examples below pair each entry with its known result.
molecule	chromatographic logP
NC(=O)N/N=C/c1ccc([N+](=O)[O-])o1 [Nitrofurazone]	0.24
c1ccc2ccccc2c1 [Naphthalene]	3.53
c1ccc(-c2ccc(C(c3ccccc3)n3ccnc3)cc2)cc1 (centres unmarked) [Bifonazole]	4.98

Task: # get_value(readout='chromatographic logP', item= C[C@]12CC[C@@H]3c4ccc(O)cc4CC[C@H]3[C@@H]1CC[C@@H]2O [Estradiol] )
Output: 3.84

Task: Need chromatographic logP, item C[C@@H]1C[C@H]2[C@@H]3CCC4=CC(=O)C=C[C@]4(C)[C@@]3(F)[C@@H](O)C[C@]2(C)[C@@]1(O)C(=O)CO [Dexamethasone]
Output: 2.39

Task: Can you look up the measured chromatographic logP of CC(=O)Nc1ccc(O)cc1 [Acetaminophen] for me?
Output: 0.11

Task: I would be grateful if you could share the reported chromatographic logP for CN1C(=O)C(O)N=C(c2ccccc2Cl)c2cc(Cl)ccc21 (centres unmarked) [Lormetazepam] .
Output: 2.8

====

Attribute: Residual
# test: physchem
# condition.parameters: logPoct minus ElogPoct
Form: value (number only, do not type unit).

Known results for compounds:
compound	Residual
Cc1ncc([N+](=O)[O-])n1CCO	0.20
CSc1ncnc2c1ncn2[C@@H]1O[C@H](CO)[C@@H](O)[C@H]1O	−0.25
CC(=O)Nc1ccc(O)cc1	0.40

Task: What measured Residual goes with `c1ccc2ncccc2c1` ?
Output: 0.17

Task: Item O=C1Nc2ccc(Cl)cc2C(c2ccccc2Cl)=NC1O (centres unmarked) has what recorded Residual?
Output: −0.24

Task: Param item = `O=[N+]([O-])c1ccc(/C=N/O)o1` ; retrieve measured Residual.
Output: −0.08

Task: Given the entry c1ccc(-c2ccc(C(c3ccccc3)n3ccnc3)cc2)cc1 (centres unmarked) , report its measured Residual.
Output: −0.21

Task: Name the reported Residual value associated with the compound `C[C@]12C=CC(=O)C=C1CC[C@@H]1[C@@H]2C(=O)C[C@@]2(C)[C@H]1CC[C@]2(O)C(=O)CO`
Output: −0.02

Task: Given the entry `Brc1cnc2ccccc2c1` , report its measured Residual.
Output: 0.08

Task: I have this compound here, `NC(=O)N/N=C/c1ccc([N+](=O)[O-])o1` , and I need its recorded Residual.
Output: −0.01

Task: Dear colleague, I am looking for the recorded Residual of the following compound: `Oc1ncnc2[nH]ncc12`
Output: 0.30

Task: Look up Residual: `C[C@]12CC[C@H]3[C@@H](CCC4=CC(=O)CC[C@@]43C)[C@@H]1CC[C@@H]2O`
Output: 0.12

Task: Return reported Residual; argument: `c1ccc2ccccc2c1`
Output: −0.16

Task: Fill blank: measured Residual of the compound CN1C(=O)C(O)N=C(c2ccccc2Cl)c2cc(Cl)ccc21 (centres unmarked) is ____.
Output: −0.08

Task: Requested field: Residual. Item: `CC(=O)CCCCn1c(=O)c2c(ncn2C)n(C)c1=O`
Output: −0.02

Task: For the compound shown here, `CC(=O)c1ccccc1` , give the reported Residual.
Output: −0.01

====

# test: physchem
# condition.parameters: Average of at least three determinations on different LC-ABZ columns; 20 mM MOPS pH 7.4/methanol with octanol; extrapolated to 0% methanol
reported.metric: log k′2 (capacity factor extrapolated to 0% methanol)
Give your answer as a number; write no unit.

Task: For Cc1cccc(N(C)C(=S)Oc2ccc3ccccc3c2)c1 [Tolnaftate] , what is its reported log k′2 (capacity factor extrapolated to 0% methanol)?
Output: 4.55

Task: What does the record list as log k′2 (capacity factor extrapolated to 0% methanol) for `CC(=O)c1ccccc1` ?
Output: 1.31

Task: Name the reported log k′2 (capacity factor extrapolated to 0% methanol) value associated with the compound `Oc1cccc(Cl)c1`
Output: 2.49

Task: Please give the measured log k′2 (capacity factor extrapolated to 0% methanol) for this compound: `Cc1ncc([N+](=O)[O-])n1CCO`
Output: −0.32

Task: Please look up its log k′2 (capacity factor extrapolated to 0% methanol): O=C1Nc2ccc(Cl)cc2C(c2ccccc2Cl)=NC1O (centres unmarked)
Output: 2.36

Task: Suppose we examine the compound `C[C@]12C=CC(=O)C=C1CC[C@@H]1[C@@H]2C(=O)C[C@@]2(C)[C@H]1CC[C@]2(O)C(=O)CO` ; what log k′2 (capacity factor extrapolated to 0% methanol) value has been reported?
Output: 1.21

Task: # query: log k′2 (capacity factor extrapolated to 0% methanol) of entry `c1ccc2ncccc2c1`
Output: 1.56

====

# test: physchem
Entries and their measured chromatographic logP follow.
Number only, no unit.

// solved cases for chromatographic logP follow
compound	chromatographic logP
NC(=O)N1c2ccccc2C=Cc2ccccc21 [Carbamazepine]	2.02
CC/C(=C(/CC)c1ccc(O)cc1)c1ccc(O)cc1 [Diethylstilbestrol]	4.75
O=C1CN=C(c2ccccn2)c2cc(Br)ccc2N1 [Bromazepam]	1.39
Oc1cc(Cl)cc(Cl)c1 [3,5-Dichlorophenol]	3.91
O=[N+]([O-])c1ccc(/C=N/O)o1 [Nifuroxime]	1.36
O=C1Nc2ccc(Cl)cc2C(c2ccccc2Cl)=NC1O (stereo not shown) [Lorazepam]	2.75

Task: Need chromatographic logP, item CC(=O)CCCCn1c(=O)c2c(ncn2C)n(C)c1=O [Pentoxifylline]
Output: 0.31

====

# test: physchem
# condition.parameters: logPoct minus ElogPoct
Lab note: class by Residual, see group 1: < -0.2; group 2: ≥ -0.2 and < 0.2; group 3: ≥ 0.2

Some solved entries appear below for comparison.
compound	label.value
CC(=O)OCC(=O)[C@@]1(O)CC[C@H]2[C@@H]3CCC4=CC(=O)CC[C@]4(C)[C@H]3[C@@H](O)C[C@@]21C [Hydrocortisone-21-acetate]	group 2
O=C1CN=C(c2ccccn2)c2cc(Br)ccc2N1 [Bromazepam]	group 3
CC/C(=C(/CC)c1ccc(O)cc1)c1ccc(O)cc1 [Diethylstilbestrol]	group 3
Oc1cc(Cl)cc(Cl)c1 [3,5-Dichlorophenol]	group 1
C[C@]12C=CC(=O)C=C1CC[C@@H]1[C@@H]2[C@@H](O)C[C@@]2(C)[C@H]1CC[C@]2(O)C(=O)CO [Prednisolone]	group 1

Task: Please report the category associated with COC1=CC(=O)C[C@@H](C)[C@]12Oc1c(Cl)c(OC)cc(OC)c1C2=O [Griseofulvin] , nothing else.
Output: group 1

Task: Please indicate the class for Cc1cccc(N(C)C(=S)Oc2ccc3ccccc3c2)c1 [Tolnaftate] based on its Residual.
Output: group 3

Task: Form field 'band' for CS(=O)(=O)c1ccc([C@@H](O)[C@@H](CO)NC(=O)C(Cl)Cl)cc1 [Thiamphenicol]
Output: group 2

Task: # bin label for NC(=O)N1c2ccccc2C=Cc2ccccc21 [Carbamazepine]
Output: group 2

Task: State the band of Oc1cccc(Cl)c1 [3-Clorophenol]
Output: group 1

====

# test: physchem
# condition.parameters: Average of at least three determinations on different LC-ABZ columns; 20 mM MOPS pH 7.4/methanol with octanol; extrapolated to 0% methanol
reported.metric: log k′2 (capacity factor extrapolated to 0% methanol)
# output: bare number, no unit

Use the examples below as a reference point.
molecule	assay.value
CSc1ncnc2c1ncn2[C@@H]1O[C@H](CO)[C@@H](O)[C@H]1O	0.19
CS(=O)(=O)c1ccc([C@@H](O)[C@@H](CO)NC(=O)C(Cl)Cl)cc1	−0.24
NC(=O)N1c2ccccc2C=Cc2ccccc21 [Carbamazepine]	1.70

Next, consider the following molecule.
Task: Entry `O=[N+]([O-])c1ccc(/C=N/O)o1` : reported log k′2 (capacity factor extrapolated to 0% methanol) = ?
Output: 1.11

====

# test: physchem
Binary call on chromatographic logP: met from 3 upward, not met beneath that.

compound	label.value
COC1=CC(=O)C[C@@H](C)[C@]12Oc1c(Cl)c(OC)cc(OC)c1C2=O [Griseofulvin]	not met

Task: Assess whether reported chromatographic logP for CC(=O)c1ccccc1 [Acetophenone] sits at 3 or higher.
Output: not met

Task: For this compound, is measured chromatographic logP 3 or higher? c1ccc2ncccc2c1 [Quinoline]
Output: not met

Task: I'd appreciate it if you could say whether Cc1cccc(N(C)C(=S)Oc2ccc3ccccc3c2)c1 [Tolnaftate] has chromatographic logP at least equal to 3.
Output: met

Task: Is the recorded value of chromatographic logP equal to or greater than 3 for this compound? C[C@]12C=CC(=O)C=C1CC[C@@H]1[C@@H]2[C@@H](O)C[C@@]2(C)[C@H]1CC[C@]2(O)C(=O)CO [Prednisolone]
Output: not met
